Listed here are molecules together with their documented GI50.
System: UACC-257 melanoma
Assay: NCI tumour cell line growth inhibition, 48 h
readout: GI50

molecule=CCCCCOc1ccc(/C=N/Nc2cc(C)nc3ccc(Cl)cc23)cc1 readout=GI50 test_result="1.72 µM"
molecule=COc1ccc2c(c1)c(-c1nc(-c3c[nH]c4ncccc34)cs1)cn2CCCN1CCOCC1 readout=GI50 test_result="2.04 µM"
molecule=Cc1ccc(O)cc1Nc1ccnc2ccc(S(C)(=O)=O)cc12 readout=GI50 test_result="0.957 µM"
molecule=COc1cc2c(N3CCN(C(=O)Nc4ccc(OC(C)C)cc4)CC3)ncnc2cc1OCCCN1CCCCC1 readout=GI50 test_result="10.3 µM"
molecule=FC(F)(F)Oc1cccc(-c2cc(NCCCCCCNc3cc(-c4cccc(OC(F)(F)F)c4)nc4ccc(N5CCCC5)cc34)c3cc(N4CCCC4)ccc3n2)c1 readout=GI50 test_result="1.89 µM"
molecule=c1ccc(-c2[nH]ncc2-c2ccnc(-c3ccc(OCCn4ccnc4)cc3)c2)nc1 readout=GI50 test_result="> 25 µM"
molecule=Cc1cc(O)c2c(c1)C(=O)C=CC2=O readout=GI50 test_result="9.95 µM"
molecule=CC1(C)OC[C@@H]([C@@]2(CO[Si](c3ccccc3)(c3ccccc3)C(C)(C)C)CC=CC(=O)O2)O1 readout=GI50 test_result="3.3 µM"
molecule="N#CC1c2ccccc2C=CN1C(=O)CCCl (centres undefined)" readout=GI50 test_result="13.1 µM"

----------
Listed here are compounds together with their documented GI50.
Tested on: EKVX NSCLC
Assay: NCI tumour cell line growth inhibition, 48 h
readout: GI50

compound=Cc1ccc(O)cc1Nc1ccnc2ccc(S(C)(=O)=O)cc12 readout=GI50 test_result="11900 nM"
compound=CCCCCOc1ccc(/C=N/Nc2cc(C)nc3ccc(Cl)cc23)cc1 readout=GI50 test_result="1670 nM"
compound="CCN1C(=S)N(CC)C2C1NC(=S)N2/N=C/C=C/c1ccccc1OC (stereo not given)" readout=GI50 test_result="400 nM"
compound=CNCc1cccc2c1OCCOCCOCCN(C)S(=O)(=O)c1ccc(cc1)-c1cnc(N)c(n1)C(=O)N2 readout=GI50 test_result="2830 nM"
compound=COc1ccc2c(c1)C(=O)c1c-2c(Nc2ccccc2OC)nc2ccccc12 readout=GI50 test_result="> 100000 nM"

----------
Listed here are molecules together with their documented TGI.
Test system: MDA-N
Experiment: NCI tumour cell line growth inhibition, 48 h
readout: TGI

molecule=Clc1cccc(-c2sc(-c3cccs3)cc2Cc2cccs2)c1 tested_on=MDA-N test_result="> 10 µM"
molecule=CC(=O)Nc1nc(Cl)cc(NCC2(CO)CCC2)n1 tested_on=MDA-N test_result="> 100 µM"
molecule="CC1=CC2C3(C)C(C)(C(C)=CP3(=O)c3c(C(C)C)cc(C(C)C)cc3C(C)C)C1P2(=O)c1c(C(C)C)cc(C(C)C)cc1C(C)C (configuration not stated)" tested_on=MDA-N test_result="5.62 µM"
molecule="CC(Br)C(=O)NC(CO)C(=O)O (configuration not stated)" tested_on=MDA-N test_result="> 100 µM"
molecule=O=C(c1ccco1)N(C(=O)N1CCCCC1)c1ccccc1 tested_on=MDA-N test_result="> 100 µM"
molecule="Cc1c(C)n(-c2ccccc2)c2nc(S(C)=O)nc(S(C)=O)c12 (configuration not stated)" tested_on=MDA-N test_result="13.6 µM"
molecule=O=C(/C=C/c1ccc(Cl)cc1)Oc1ccc(C=C2CCC/C(=C\c3ccc(OC(=O)/C=C/c4ccc(Cl)cc4)cc3)C2=O)cc1 tested_on=MDA-N test_result="> 100 µM"

----------
System: MALME-3M melanoma
Assay: NCI tumour cell line growth inhibition, 48 h
readout: TGI (µM)

compound=CCOC(=O)CSc1nc(N)c2c(-c3ccccc3)c3c(nc2n1)CCCC3 display_unit=µM result_qualifier=> test_result=100
compound="COC(=O)C(Cc1cn(C(C)n2cc(CC(NC(C)=O)C(=O)OC)c3ccccc32)c2ccccc12)NC(C)=O (stereo not drawn)" display_unit=µM result_qualifier=> test_result=100
compound="C[C@]12CCC3[C@@H](CCC45OC4C(=O)CC[C@]35C)C1Cc1cnn(-c3ccc(F)cc3)c1N2 (stereo partly drawn)" display_unit=µM result_qualifier=> test_result=100
compound="COC(=O)OC1C(O[C@H]2C[C@H]3[C@@H]4CC=C5C[C@@H](O)CC[C@]5(C)[C@H]4CC[C@]3(C)[C@H]2[C@H](C)C(=O)CCC(C)C)OCC(O)C1OC1OCC(O)C(O)C1OC(=O)c1ccc(OC)cc1 (stereo partly drawn)" display_unit=µM result_qualifier== test_result=0.769
compound=Cn1c([N+](=O)[O-])cnc1C=C1C(=O)c2ccccc2C1=O display_unit=µM result_qualifier== test_result=11.6
compound=CCN(CC)CCCNc1ccc(C)c2sc3ccccc3c(=O)c12 display_unit=µM result_qualifier== test_result=0.402
compound=O=C1/C(=C/c2ccc(Cl)c(Cl)c2)CN(C(=O)CCN2CCC(=NO)CC2)C/C1=C\c1ccc(Cl)c(Cl)c1 display_unit=µM result_qualifier== test_result=2.78
compound=Nc1ncc(Cc2ccc3c(c2)OCO3)c(N)n1 display_unit=µM result_qualifier=> test_result=100

----------
Tested on: HCT-15 colon
Test: NCI tumour cell line growth inhibition, 48 h
Listed here are compounds together with their documented TGI.
readout: TGI

compound="O=C(/C=C/C12c3ccccc3C(c3ccccc31)C1C(=O)NC(=O)C12)c1ccccn1 (stereo unspecified)" test_result="3.35 µM"
compound=CN(C)CCNC(=O)c1cccc2c1Nc1ccccc1S2 test_result="31.4 µM"
compound="CCCCCCCC(=O)OCC(COC(=O)C(C)(C)C)OC(=O)Cc1ccccc1 (stereo unspecified)" test_result="> 100 µM"
compound="COC(=O)/C=C(/C=C1/C(C#N)=C(N)N(c2ccc(Cl)cc2)C1(C)/C(=C\\C(=O)OC)C(=O)OC)C(=O)OC (stereo unspecified)" test_result="50.2 µM"
compound=O=C(COc1ccc(OCC(=O)N/N=C/c2ccc(-c3ccc(Cl)cc3Cl)o2)c(Cl)c1)N/N=C/c1ccc(-c2ccc(Cl)cc2Cl)o1 test_result="> 100 µM"
compound="N#CC(C(=O)C(=O)Nc1c(Cl)cccc1Cl)c1ccccc1 (stereo unspecified)" test_result="> 100 µM"
compound=CC1=C(C(=O)Nc2ccccc2)C(c2ccc(N(C)C)cc2)C(C(=O)Nc2ccccc2)=C(C)N1 test_result="15.3 µM"
compound="O=C(CC(NC(=O)C(F)(F)F)C(=O)O)OCc1ccccc1 (stereo unspecified)" test_result="> 100 µM"
compound="COCC([C@@H](O)C(O)C(=O)NCC[C@@H](C)c1nc(/C=C/CC2OC3(C[C@H](O)C2C)OC(C(C[C@H](O)C(C)[C@H](O)C(C)/C=C(C)/C(C)=C/C=C/C(C)=C/C#N)OC)[C@@H](OP(=O)(O)O)C3(C)C)co1)N(C)C (stereo partly specified)" test_result="0.000462 µM"
compound=CCOC(=O)c1nc(C)oc1C(F)(F)F test_result="> 100 µM"
compound=Cc1nc2ccc(Cl)cc2c(-n2ccnc2)c1CCn1ccnc1 test_result="> 100 µM"
compound="CC1=CC2C3(C)C(C)(C(C)=CP3(=O)c3c(C(C)C)cc(C(C)C)cc3C(C)C)C1P2(=O)c1c(C(C)C)cc(C(C)C)cc1C(C)C (stereo unspecified)" test_result="5.87 µM"
compound="CC(=O)O[C@H]1C(=O)[C@@]2(C)C([C@H](OC(=O)c3ccccc3)[C@]3(O)C[C@H](OC(=O)[C@H](O)[C@@H](NC(=O)c4ccccc4)c4ccccc4)C(C)=C1C3(C)C)[C@]1(OC(C)=O)CO[C@@H]1C[C@@H]2O (stereo partly specified)" test_result="> 50 µM"
compound=CCCCCCCCCCCCCCCCCCOc1ccccc1CC(=O)NCC[N+]1(C)CCOCC1 test_result="66.5 µM"
compound=O=C(NCc1ccccc1)c1cc2ccccc2oc1=Nc1cccc(C(F)(F)F)c1 test_result="> 100 µM"
compound=CC(C)Oc1cccc(N2C(n3ccnc3)=Nc3ccncc3S2(=O)=O)c1 test_result="32.7 µM"
compound=COc1ccc2nc(NC(=O)/C(C#N)=C/c3ccccc3)sc2c1 test_result="> 100 µM"
compound=Cc1cccc(NC(=O)c2sc3nc4c(cc3c2N)C(=O)CCC4)c1 test_result="> 100 µM"
compound=COc1ccc2sc3c(NCCCN)nc4ccccc4c3c(=O)c2c1 test_result="3.05 µM"
compound="COc1ccc(C)cc1N1C(=O)C2ON(Cc3ccc(CC(N)=O)cc3)C(c3c4ccccc4c(Cl)c4ccccc34)C2C1=O (stereo unspecified)" test_result="73.3 µM"
compound=Cn1nc(-c2ccc(S(=O)(=O)/N=C(\NN)Nc3ccc(Cl)cc3)s2)cc1C(F)(F)F test_result="47.5 µM"

----------
Listed here are compounds together with their documented TGI.
System: EKVX NSCLC
Assay: NCI tumour cell line growth inhibition, 48 h
readout: TGI

compound=Cc1ccc2cccc(-c3cccc4ccccc34)c2n1 tested_on="EKVX NSCLC" readout=TGI test_result="84.9 µM"
compound="O=[N+]([O-])c1ccccc1C1SCc2nc3ccccc3n21 (centres undefined)" tested_on="EKVX NSCLC" readout=TGI test_result="> 100 µM"
compound=COc1cc2nc(-c3ccc(Cl)cc3)cc(OCCCN3CCOCC3)c2cc1OC tested_on="EKVX NSCLC" readout=TGI test_result="> 100 µM"
compound="[N-]=[N+]=CC(=O)C1CCCN1C(=O)c1ccccc1 (centres undefined)" tested_on="EKVX NSCLC" readout=TGI test_result="> 10 µM"
compound=O=c1c(F)cn2c(=O)n1CCCCCCCn1c(=O)c(F)cn(c1=O)CCCCCCC2 tested_on="EKVX NSCLC" readout=TGI test_result="> 100 µM"
compound="CC(C)C(Br)CCC1=CCC(Br)(Br)C1 (centres undefined)" tested_on="EKVX NSCLC" readout=TGI test_result="32.5 µM"
compound=COc1cc2c(cc1Nc1nc(N3CCc4ccccc43)c3cc[nH]c3n1)N(C(=O)CN(C)C)CC2 tested_on="EKVX NSCLC" readout=TGI test_result="13.9 µM"
compound="COC1OC(C)C(NC(=O)OCC(Cl)(Cl)Cl)C2OC(C)(C)OC12 (centres undefined)" tested_on="EKVX NSCLC" readout=TGI test_result="> 100 µM"
compound=CN[C@@H](C)C(=O)N[C@H]1CN(S(=O)(=O)c2cccc(S(=O)(=O)N3CC[C@H]4CC[C@@H](C(=O)NC(c5ccccc5)c5ccccc5)N4C(=O)[C@@H](NC(=O)[C@H](C)NC)C3)c2)CC[C@H]2CC[C@@H](C(=O)NC(c3ccccc3)c3ccccc3)N2C1=O tested_on="EKVX NSCLC" readout=TGI test_result="> 74 µM"
